Data origin: paper PMC10247784

# TARGET_OF_ASSAY: human TAS2R14 (Homo sapiens)
# Construct: expressed in transfected cells; host or cells: HEK293T-Gα16gust44
# Sequence (Q9NYV8 whole entry): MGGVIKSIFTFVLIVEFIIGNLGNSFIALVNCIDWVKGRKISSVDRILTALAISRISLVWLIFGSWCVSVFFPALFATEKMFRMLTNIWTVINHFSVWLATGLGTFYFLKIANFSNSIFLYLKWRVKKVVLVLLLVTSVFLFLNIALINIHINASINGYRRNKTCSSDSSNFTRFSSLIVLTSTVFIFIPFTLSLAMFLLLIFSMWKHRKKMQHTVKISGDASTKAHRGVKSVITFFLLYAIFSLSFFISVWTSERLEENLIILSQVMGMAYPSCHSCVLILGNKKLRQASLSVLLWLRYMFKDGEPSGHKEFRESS
# EXPERIMENT: Calcium imaging assay (FLIPR), HEK293T-Gα16gust44 cells transfected with human TAS2R14
# Assay type: cell-based
# CONDITION_LABEL: TAS2R14 trace; Time (s) 84.797 (Chenodeoxycholic Acid 84.781)
Measured RLU values are reported for all entries that follow.

SMILES_TEXT | UNIT_INFO | RLU
C[C@H](CCC(=O)O)[C@H]1CC[C@H]2[C@@H]3[C@H](O)C[C@@H]4C[C@H](O)CC[C@]4(C)[C@H]3C[C@H](O)[C@]12C | RLU | 1028.13
C[C@H](CCC(=O)NCCS(=O)(=O)O)[C@H]1CC[C@H]2[C@@H]3[C@H](O)C[C@@H]4C[C@H](O)CC[C@]4(C)[C@H]3C[C@H](O)[C@]12C | RLU | 755.668
C[C@H](CCC(=O)NCCS(=O)(=O)O)[C@H]1CC[C@H]2[C@@H]3CC[C@@H]4C[C@H](O)CC[C@]4(C)[C@H]3CC[C@]12C | RLU | 297.633
C[C@H](CCC(=O)NCC(=O)O)[C@H]1CC[C@H]2[C@@H]3[C@H](O)C[C@@H]4C[C@H](O)CC[C@]4(C)[C@H]3C[C@H](O)[C@]12C | RLU | 766.635
C[C@H](CCC(=O)O)[C@H]1CC[C@H]2[C@@H]3[C@H](O)C[C@@H]4C[C@H](O)CC[C@]4(C)[C@H]3CC[C@]12C | RLU | 678.438
